Where do these numbers come from? They come from the supplement of paper PMC10567573.

B1: ADAMTS4 (parent)
chain: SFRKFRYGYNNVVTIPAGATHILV

variants of: B1; assay: protein stability index of a GFP-peptide fusion (GPS, HEK-293T) (PSI 1-6); higher = more stable; conditions: c terminus: a fixed tail appended;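 note: lentivirally expressed fusions sorted by FACS into six bins by GFP to DsRed ratio, PSI derived from sequencing read proportions per bin multiplied by bin number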
Label yes when protein stability index is at or above 2; otherwise label no.

Previously resolved entries follow.
{"variantDescriptor": "G8E", "qualitativeLabel": "yes"}
{"variantDescriptor": "R6C", "qualitativeLabel": "yes"}
{"variantDescriptor": "V12R", "qualitativeLabel": "no"}

# bool: protein stability index of R6A >= 2
no

# bool: protein stability index of R3T >= 2
no

# bool: protein stability index of I15A >= 2
yes

# bool: protein stability index of G8N >= 2
yes

# bool: protein stability index of I15Y >= 2
yes

# bool: protein stability index of A19E >= 2
yes

# bool: protein stability index of F5E >= 2
yes

# bool: protein stability index of I15R >= 2
no
